# method summary: qHTS for Inhibitors of Cell Surface uPA Generation: FP59 Counterscreen for Cherry-picked Compounds
# recorded conditions: FP59 anthrax toxin cytotoxicity counterscreen, cells; series mostly up to 115 µM
Inconclusive results are not listed. Activity calls are given as the source filed them. Calls come from the whole dose curve; as a rule, active = well fitted activation curve with a large enough effect; inconclusive = small, poorly fitted or top-dose-only effect; inactive = flat fitted curve, though single readings scatter.
readout name: outcome

CCCCN(CC(=O)NCc1ccc(F)cc1)C(=O)c1ccco1    inactive
COCCOC(=O)C1=C(C)NC(=O)NC1c1cccc2ccccc12 (configuration not stated)    inactive
CC(=O)c1cccc(NC(=O)N2C3CCC2CC(O)(c2cccnc2)C3)c1 (configuration not stated)    inactive
CCOC(=O)C1=C(C)N(Cc2ccccc2)C(=O)NC1c1ccc(OC)cc1 (configuration not stated)    inactive
COc1ccc(NC(=O)/C(N=Nc2cc(S(=O)(=O)Nc3ccc(OC)cc3)ccc2OC)=C(\C)O)cc1    inactive

Shift focus to the following entry.
// sample O=C(Nc1cccc(NC(=O)c2ccc(F)cc2)c1)c1ccc(F)cc1 , its outcome was inactive
